PROTOCOL_DETAILS: Absorbance/emission spectra in ethanol
Assay type: physicochemical
SETTINGS: ethanol; approximate, maximum absorbance divided by nominal concentration
For each entry below, report its Extinction Coefficient value.

Field: Extinction Coefficient. Fill in for each record below.
1. CCCCCCCCCCCCCCCCCCN1/C(=C\C=C\c2oc3ccc(C(C)(C)C)cc3[n+]2CCCCCCCCCCCCCCCCCC)Oc2ccc(C(C)(C)C)cc21.[I-] [Compound F306B]
2. CCCCCCCCCCCCCCCCCCCCCC[n+]1c(/C=C2\Sc3ccccc3N2CCCCCCCCCCCCCC)sc2ccccc21.[I-] [Compound F305B]
3. CCCCCCCCCCCCCCCCN1/C(=C\C=C\c2oc3ccc(C(C)(C)C)cc3[n+]2CCCCCCCCCCCCCCCC)Oc2ccc(C(C)(C)C)cc21.[I-] [Compound F304B]
4. CCCCCCCCCCCCCCCCCCCCCC[N+]1=C(/C=C/C=C/C=C2/N(CCCCCCCCCCCCCC)c3ccc([N+](=O)[O-])cc3C2(C)C)C(C)(C)c2ccccc21.[I-] [Compound F308B]
5. CCCCCCCCCCCCCCCCCCCCCC[N+]1=C(/C=C/C=C/C=C/C=C2/N(CCCCCCCCCCCCCC)c3ccc([N+](=O)[O-])cc3C2(C)C)C(C)(C)c2ccccc21.[I-] [Compound F319B]
6. CCCCCCCCCCCCCCCCCCCCCC[N+]1=C(/C=C/C=C/C=C/C=C2/N(CCCCCCCCCCCCCC)c3ccc4ccccc4c3C2(C)C)C(C)(C)c2c1ccc1ccccc21.[I-] [Compound F277A]

RESULT:
135,000 M^−1cm^−1
81,200 M^−1cm^−1
160,000 M^−1cm^−1
134,610 M^−1cm^−1
112,500 M^−1cm^−1
205,400 M^−1cm^−1

* * *

Field: Flourescence Ex Max. Provide a value for each of the compounds that follow.
PROTOCOL_DETAILS: Absorbance/emission spectra in ethanol
Type: physicochemical
SETTINGS: 0.25 μM solutions in ethanol
Answer format reminder: number followed by unit.

The following compounds have reported results that may help.
| COMPOUND | Flourescence Ex Max |
| --- | --- |
| CCCCCCCCCCCCCCCCN1/C(=C\C=C\c2oc3ccc(C(C)(C)C)cc3[n+]2CCCCCCCCCCCCCCCC)Oc2ccc(C(C)(C)C)cc21.[I-] [Compound F304B] | 494 nm |
| CCCCCCCCCCCCCCCCCCCCCC[n+]1c(/C=C2\Sc3ccccc3N2CCCCCCCCCCCCCC)sc2ccccc21.[I-] [Compound F305B] | 420 nm |
| CCCCCCCCCCCCCCCCCCCCCC[N+]1=C(/C=C/C=C/C=C/C=C2/N(CCCCCCCCCCCCCC)c3ccc4ccccc4c3C2(C)C)C(C)(C)c2c1ccc1ccccc21.[I-] [Compound F277A] | 790 nm |

Provide Flourescence Ex Max values for the following items, in order.
1. CCCCCCCCCCCCCCCCCCCCCC[N+]1=C(/C=C/C=C/C=C2/N(CCCCCCCCCCCCCC)c3ccc([N+](=O)[O-])cc3C2(C)C)C(C)(C)c2ccccc21.[I-] [Compound F308B]
2. CCCCCCCCCCCCCCCCCCN1/C(=C\C=C\c2oc3ccc(C(C)(C)C)cc3[n+]2CCCCCCCCCCCCCCCCCC)Oc2ccc(C(C)(C)C)cc21.[I-] [Compound F306B]

RESULT:
493 nm
493 nm

* * *

PROTOCOL_DETAILS: Absorbance/emission spectra in ethanol
Assay type: physicochemical
SETTINGS: 0.25 μM solutions in ethanol
ENDPOINT_NAME: Fluorescence Em Max (nm)
One number for each entry, in nm.

The following compounds have reported results that may help.
| COMPOUND | MEASURED |
| --- | --- |
| CCCCCCCCCCCCCCCCCCCCCC[N+]1=C(/C=C/C=C/C=C/C=C2/N(CCCCCCCCCCCCCC)c3ccc([N+](=O)[O-])cc3C2(C)C)C(C)(C)c2ccccc21.[I-] [Compound F319B] | 776 |
| CCCCCCCCCCCCCCCCCCCCCC[N+]1=C(/C=C/C=C/C=C/C=C2/N(CCCCCCCCCCCCCC)c3ccc4ccccc4c3C2(C)C)C(C)(C)c2c1ccc1ccccc21.[I-] [Compound F277A] | 814 |
| CCCCCCCCCCCCCCCCCCCCCC[N+]1=C(/C=C/C=C/C=C2/N(CCCCCCCCCCCCCC)c3ccc([N+](=O)[O-])cc3C2(C)C)C(C)(C)c2ccccc21.[I-] [Compound F308B] | 671 |
| CCCCCCCCCCCCCCCCCCCCCC[n+]1c(/C=C2\Sc3ccccc3N2CCCCCCCCCCCCCC)sc2ccccc21.[I-] [Compound F305B] | 461 |
| CCCCCCCCCCCCCCCCN1/C(=C\C=C\c2oc3ccc(C(C)(C)C)cc3[n+]2CCCCCCCCCCCCCCCC)Oc2ccc(C(C)(C)C)cc21.[I-] [Compound F304B] | 508 |

Attention now shifts to the item below.
Entry CCCCCCCCCCCCCCCCCCN1/C(=C\C=C\c2oc3ccc(C(C)(C)C)cc3[n+]2CCCCCCCCCCCCCCCCCC)Oc2ccc(C(C)(C)C)cc21.[I-] [Compound F306B] , Fluorescence Em Max reported as 508
